These data points were gathered from the supplement of paper PMC12042874.

test: amyloid nucleation score (Sup35N fusion, yeast selection) (log enrichment); library NNK1; higher = more nucleation; inactive = no reads after selection;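 also: zero at mode of non-aggregating sequences after 7 days selection at 30°C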
Reported values of amyloid nucleation score for individual entries
Form: value (number only, do not type unit).

[
  {
    "substance": "GVDMRYFGPYAGYADYSKSR",
    "measurementKind": "amyloid nucleation score",
    "recordedMeasurement": -0.846
  },
  {
    "substance": "LMAHSGSAP",
    "measurementKind": "amyloid nucleation score",
    "recordedMeasurement": 3.3
  },
  {
    "substance": "VRMIFVQCWKCTESNFCERN",
    "measurementKind": "amyloid nucleation score",
    "recordedMeasurement": -0.174
  },
  {
    "substance": "KWTGRGSYNDRLFVRRRMF",
    "measurementKind": "amyloid nucleation score",
    "recordedMeasurement": -0.073
  }
]

Record "LMAPLCICKNFRPELWFNRI" , field amyloid nucleation score: -0.115

amyloid nucleation score recorded for this substance, "EGYPTMSMNSRS" , is 0.716

###

experiment: amyloid nucleation score (Sup35N fusion, yeast selection) (log enrichment); library NNK3; higher = more nucleation; inactive = no reads after selection
measurementKind: amyloid nucleation score

Take a look at these entries with their results.
[
  {
    "chainSequence": "NVLALECVRDWT",
    "amyloid nucleation score": "inactive"
  },
  {
    "chainSequence": "LTIRPFEVGRESESGFVLIS",
    "amyloid nucleation score": "inactive"
  },
  {
    "chainSequence": "YKPLFVCSRHLMNRELCTGY",
    "amyloid nucleation score": "inactive"
  },
  {
    "chainSequence": "LRSFGYRRQ",
    "amyloid nucleation score": "inactive"
  },
  {
    "chainSequence": "SFICGINNELVK",
    "amyloid nucleation score": "inactive"
  }
]

Sample "TYKHNSTYIKPLTSFLQSGG" ; amyloid nucleation score observed: inactive

Value of measured amyloid nucleation score for the entry "RKVNHFNE" : inactive

###

experiment: amyloid nucleation score (Sup35N fusion, yeast selection) (log enrichment); library NNK3; higher = more nucleation; inactive = no reads after selection
measurementKind: amyloid nucleation score

// below: answered sequences
[
  {
    "chainSequence": "LKVRLALLCRSEQRSPSTEV",
    "amyloid nucleation score": "inactive"
  },
  {
    "chainSequence": "ACTCDRAGDRLVVWLLDGYL",
    "amyloid nucleation score": "inactive"
  },
  {
    "chainSequence": "KTLVIYYTFKIGNILHIHLF",
    "amyloid nucleation score": "inactive"
  },
  {
    "chainSequence": "LILYSLGNNTHEMIYLWSNR",
    "amyloid nucleation score": "inactive"
  },
  {
    "chainSequence": "SSSATGPAYGNKQATFRRLV",
    "amyloid nucleation score": -0.457
  }
]

For record "IFFVTVYQTNHHKSTLRCTN" the listed amyloid nucleation score is 2.33

Lab note: measured amyloid nucleation score of "ALRARERWLRLPALAWKVMY" was inactive

"SHFAEQGLSCSLSYSFSTIL" has a reported amyloid nucleation score of inactive

The recorded amyloid nucleation score for "MRRGEDCVV" is inactive

Measured amyloid nucleation score of "FFAECCRGNKCYMRSKDDQS" : inactive

The recorded amyloid nucleation score for entry "SNYVMKVYRACHQVQPTISA" equals inactive
